Cited source for all entries: the supplement of paper PMC7125110

B1: glmS ribozyme (parent)
chain: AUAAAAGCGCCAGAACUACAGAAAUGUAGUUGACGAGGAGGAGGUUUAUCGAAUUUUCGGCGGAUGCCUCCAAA

- Variants of: B1
- measurement_notes: self-cleavage kobs at 2500 uM GlcN6P; higher = faster cleavage; RNA array
- assay_setup: with glucosamine-6-phosphate
This sample holds only a part of the variants without activity.
Listed variants paired with reported self-cleavage kobs at 2500 uM GlcN6P
measure_name: self-cleavage kobs at 2500 uM GlcN6P

G13C G38U U47A C70G : < 1e-05 s⁻¹
G38C C61A : < 1e-05 s⁻¹
A39G A48G : 0.00013 s⁻¹
A48U C70G : 4.89e-05 s⁻¹
G37A G38A A39C : < 1e-05 s⁻¹
U31G G35C U46A C70G : < 1e-05 s⁻¹
U30G A64G C67G : 6.44e-05 s⁻¹
C34U U54A U69G : 0.000128 s⁻¹
A6U G51U : < 1e-05 s⁻¹
G44U A52G C67U U69G : < 1e-05 s⁻¹
A39C U45G C70G : < 1e-05 s⁻¹
